# METHOD_SUMMARY: NCI Yeast Anticancer Drug Screen. Data for the cln2 rad14 strain (AID 165);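 further: 0% = growth equal to vehicle treated cultures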
# SETUP_CONDITIONS: S. cerevisiae cln2 rad14 strain, at 50.0 µM
# Protocol: Growth inhibition of yeast strains with defined genetic alterations is measured as a screen for potential anti-cancer activity. Selected strains with alterations in DNA damage repair or cell cycle control were exposed to compounds and growth inhibition was measured relative to vehicle treated controls. The strain used in this assay is cln2 rad14
This is part of a sample that, as a whole, favours compounds with a hit. Of some 79,000 tested, about 15% had one in any assay. Active and inactive are the calls of the source. No stated cut-off is given here; in the data, active means growth inhibition above about 70%; inactive means the rest.
Possible outcomes: YES for active, NO for inactive

| MOLECULE | LABEL |
| --- | --- |
| CC1SC2(C(=O)Nc3ccc([N+](=O)[O-])cc32)N(c2ccc(Cl)cc2)C1=O (stereo not given) | YES |
| CC(C)(C)SC(=O)C1(C)OC1c1ccc([N+](=O)[O-])cc1 (stereo not given) | NO |
| O=C(O)C1CCC(CC2CC3CCC2C3)CC1 (stereo not given) | NO |
| COc1c(C(=O)/C(=N/Nc2ccccc2)C(C)=O)c(O)c(OC)c2occc12 | NO |
| C/C(C=C(C#N)C#N)=C\c1ccc([N+](=O)[O-])cc1 | NO |
| Cc1occc1C(=S)Nc1ccc(Cl)c(C(=O)OCC(F)(F)F)c1 | YES |
| Nc1cn(C2OC(CC(c3ccccc3)(c3ccccc3)c3ccccc3)C(O)C2O)c(=O)[nH]c1=O (stereo not given) | NO |
| O=S(=O)(O)c1ccc(N=Nc2ccc3c(S(=O)(=O)O)cccc3c2O)c2ccccc12 | NO |
| OC(c1ccc(Cl)cc1)c1ccc(Cl)cc1 | YES |
| O=C(Cc1ccc(C2=NCCN2)cc1[N+](=O)[O-])c1ccc(C2=NCCN2)cc1 | NO |
| CCCCCCCn1ccnc1NCCCCCCCCCCNc1nccn1CCCCCCC | YES |
| COc1ccc(C(c2c(O)c3ccccc3oc2=O)N2CCOCC2)c(OC)c1 (stereo not given) | NO |
| CC(NC(=O)OCc1ccccc1)C(=O)NC(C(=O)O)C(C)C (stereo not given) | NO |
| CCCCC#CCOC(=O)c1cc([N+](=O)[O-])cc([N+](=O)[O-])c1 | YES |
| N#CSC#Cc1ccc(C#CSC#N)cc1 | YES |

###

# METHOD_SUMMARY: NCI Yeast Anticancer Drug Screen. Data for the bub3 strain (AID 167)
# SETUP_CONDITIONS: S. cerevisiae bub3 mutant strain, at 50.0 µM, hits give high values
About 79,000 compounds went through this panel and 15% of them were active in at least one assay; those are over-represented in the sample as a whole.

| SMILES_STRUCTURE | growth inhibition [%] |
| --- | --- |
| CC(C)C(=O)N1Cc2cc(Cl)cc(Cl)c2OC(=O)c2ccccc21 | 52.9 |
| COc1ccc2c(c1)nc1cc(Cl)ccc1[n+]2C | 86.3 |
| CN(C)CCNC(=O)C(c1ccccc1)c1ccccc1 | 98 |
| O=C(Oc1ccccc1)c1ccc2ccccc2c1O | 77.7 |
| c1ccc(N=Nc2ccc3ccccc3c2)cc1 | 83 |

###

# METHOD_SUMMARY: NCI Yeast Anticancer Drug Screen. Data for the sgs1 mgt1 strain (AID 161);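 further: 0% = growth of cultures given vehicle only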
# SETUP_CONDITIONS: S. cerevisiae sgs1 mgt1 strain, at 5.0 µM (retest, dose inferred, filed as 0.5), hits give high values
Compounds without any hit were thinned out: in the full panel of roughly 79,000, 15% have a hit.
Rule: growth inhibition under 30% gives criterion not met, otherwise criterion met.

| MOLECULE | LABEL |
| --- | --- |
| C=C1C(=O)OC(C)(C)C1c1ccc(Cl)c(Cl)c1 (stereo unspecified) | criterion met |
| [Pt].c1ccc([PH+](CC[PH+](CC[PH+](c2ccccc2)c2ccccc2)CC[PH+](c2ccccc2)c2ccccc2)c2ccccc2)cc1 | criterion not met |
| COC(=O)Cc1nc2ccccc2s1 | criterion not met |
| O=C(/C=C/c1ccccc1)CCN1CCOCC1 | criterion not met |
| C=C1CC(Cn2cc(Br)c(=O)[nH]c2=O)(c2ccc(Br)cc2)OC1=O (stereo unspecified) | criterion not met |
| CCCCCCCCCCCCNC(=O)c1ccc[n+](Cc2ccc(Cl)c(Cl)c2)c1 | criterion met |
| O=C(O)/C=C/C(=O)Nc1cccc2c1C(=O)c1ccccc1-2 | criterion met |
| COc1ccc(NC(=O)C(Cc2ccccc2)NC(C)=O)cc1 (stereo unspecified) | criterion not met |
| Nc1cccc2cccnc12 | criterion not met |
| CC(=O)Oc1ccc(-c2ccc(Br)cc2)cc1 | criterion not met |
| CCc1n[nH]c(CC)c1CCCCCCOc1ccc(OC)cc1Cl | criterion not met |
| Cc1cc2c(cc1O)CC[C@@H]1[C@@H]2CC[C@]2(C)[C@@H](O)CC[C@@H]12 | criterion not met |
| CCCCCCCCCCCCCCCCCC(=O)OC(C)CCC1CCCO1 (stereo unspecified) | criterion not met |
| Cc1cc(N)c2cc(NC(=O)Nc3ccc4nc(C)cc(N)c4c3)ccc2n1 | criterion met |
| COc1ccc(/C=N/NS(=O)(=O)c2ccccc2)cc1 | criterion not met |
| CCCCCCCCCCCCCCCCCC[n+]1cccc(C(=O)N2CCOCC2)c1 | criterion met |

###

# METHOD_SUMMARY: NCI Yeast Anticancer Drug Screen. Data for the sgs1 mgt1 strain (AID 161);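 further: 0% = growth of cultures given vehicle only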
# SETUP_CONDITIONS: S. cerevisiae sgs1 mgt1 strain, at 5.0 µM (retest, dose inferred, filed as 0.5), hits give high values
This is part of a sample that, as a whole, favours compounds with a hit. Of some 79,000 tested, about 15% had one in any assay.

| COMPOUND | growth inhibition [%] |
| --- | --- |
| O=C(Nc1cccc(C(F)(F)F)c1)C(Cl)=C(Cl)Cl | 0 |
| CCC[CH2][Sn]([CH2]CCC)([NH]c1ncnc2[nH]cnc12)[NH]c1ncnc2[nH]cnc12 | 24 |
| Nc1nnc(Cc2ccc(Br)cc2)o1 | -3 |
| O=[N+]([O-])c1nccn1CCCNCCCn1ccnc1[N+](=O)[O-] | 15 |
| CC(=O)[O-].O=C(N/N=C/c1ccccc1[O-])c1ccccc1.[Zn+2] | 1 |
| Cc1ccccc1N=Nc1c(C)nn(C(N)=S)c1-c1ccccc1 | -5 |
| Nn1c2ccccc2c2ccccc21 | -32 |
| NS(=O)(=O)c1ccc(Nc2c3ccccc3nc3c(C(=O)NC(CO)(CO)CO)cccc23)cc1 | -5 |
| Clc1ccc(OCC2CO2)c(Cl)c1 (configuration not stated) | 40 |
| CN(NS(=O)(=O)c1cccc([N+](=O)[O-])c1)c1ccccc1 | -2 |
| CCCCCCCCCCCCS(=O)(=O)CC(Br)C(=O)c1ccco1 (configuration not stated) | 67 |
| O=C(NC(c1ccccc1)N1CCOCC1)c1ccccc1 (configuration not stated) | 0 |
| CC1SC2(C(=O)Nc3ccc([N+](=O)[O-])cc32)N(c2ccc(Cl)cc2)C1=O (configuration not stated) | -1 |
| Cn1c(-c2ccc(/C=N/NC(=S)N/N=C/c3ccc(-c4c[n+]5ccsc5n4C)cc3)cc2)c[n+]2ccsc12 | 73 |
| O=C(O)c1c([N+](=O)[O-])cc(C(F)(F)F)cc1[N+](=O)[O-] | 1 |
| Clc1nc(Cl)nc(N2CCCc3ccccc32)n1 | -19 |
| Cc1cc(Sc2ccccc2)c2c(C)ccc(C(C)C)cc1-2 | 1 |

###

# METHOD_SUMMARY: NCI Yeast Anticancer Drug Screen. Data for the mlh1 rad18 strain (AID 175)
# SETUP_CONDITIONS: S. cerevisiae mlh1 rad18 strain growth inhibition; at 5.0 µM (retest, dose inferred, filed as 0.5); hits give high values
About 79,000 compounds went through this panel and 15% of them were active in at least one assay; those are over-represented in the sample as a whole.

| SMILES_STRUCTURE | growth inhibition, % |
| --- | --- |
| COC(=O)CCCC(=O)NC1=C(Nc2ccccc2)C(=O)c2ccccc2C1=O | 23 |
| CCCCCCCCCCCC[n+]1ccc(C)cc1 | 18 |
| C=CC(=O)c1ccc2c(c1)OCCOCCOCCOCCOCCO2 | 0 |

###

# METHOD_SUMMARY: NCI Yeast Anticancer Drug Screen. Data for the mlh1 rad18 strain (AID 175)
# SETUP_CONDITIONS: S. cerevisiae mlh1 rad18 strain growth inhibition; at 5.0 µM (retest, dose inferred, filed as 0.5); hits give high values
The panel holds about 79,000 compounds, 15% with a hit somewhere; the sample as a whole holds those more often.

| SMILES_STRUCTURE | growth inhibition [%] |
| --- | --- |
| O=C(O)CCCCCCCCCCOc1ccc(Cl)cc1Cl | 0 |
| Cc1ccc(SSCCCS(=O)O)cc1 | 3 |
| C1=C(CC2=C[P+](c3ccccc3)(c3ccccc3)C=C(c3ccccc3)O2)OC(c2ccccc2)=C[P+]1(c1ccccc1)c1ccccc1 | 6 |
| Cc1csc2[n+]1C(=O)/C(=C\c1ccc([N+](=O)[O-])cc1)S2 | 24 |
